- study_system: CDK2 (Homo sapiens, UniProt P24941)
- Construct: High-Throughput Measurement of Cellular Endogenous CDK2; endogenous in cells; host or cells: OVCAR3
- experiment_summary: High-throughput HTRF measurement of cellular endogenous CDK2 level (degradation, DC50/Dmax) in OVCAR3 cells, 6 h
- Assay type: cell-based
- conditions_used: 6 h compound treatment, HTRF total CDK2, read-out: DC50_OVCAR3_6h
Entries and their measured DC50 follow.

Previously resolved entries follow.
compound	study_system	result_value
Cc1ncsc1-c1ccc([C@H](C)NC(=O)[C@@H]2C[C@@H](O)CN2C(=O)[C@H](NC(=O)C2CCN(Cc3cccc(S(=O)(=O)N4CCC(Nc5ncc(C(F)(F)F)cn5)CC4)c3)CC2)C(C)(C)C)cc1 [Example 7]	CDK2 (Homo sapiens, UniProt P24941)	100 to 1000 nM
CC(Cc1cccc(S(=O)(=O)N2CCC(Nc3ncc(OC(F)F)cn3)CC2)c1)CN1CCC(c2ccc3c(N4CCC(=O)NC4=O)nn(C)c3c2)CC1 (centres unmarked) [Example 66]	CDK2 (Homo sapiens, UniProt P24941)	1 to 10 nM
Cn1nc(N2CCC(=O)NC2=O)c2ccc(C3CCC(CN4CCN(c5cccc(S(=O)(=O)N6CCC(Nc7ncc(Cl)cn7)CC6)c5)CC4)CC3)cc21 (centres unmarked) [Example 224]	CDK2 (Homo sapiens, UniProt P24941)	10 to 100 nM
Cn1nc(N2CCC(=O)NC2=O)c2ccc(C3CCN(CC4CCN(c5cc(S(=O)(=O)N6CCC(Nc7ncc(Cl)cn7)CC6)ccc5C#N)CC4)CC3)cc21 [Example 148]	CDK2 (Homo sapiens, UniProt P24941)	10 to 100 nM
Cn1nc(N2CCC(=O)NC2=O)c2ccc(C3CCN(CC4CCN(c5cccc(S(=O)(=O)N6CC[C@H](Nc7ncc(C(F)(F)F)cn7)[C@H](F)C6)c5)CC4)CC3)cc21 (racemic) [Example 223]	CDK2 (Homo sapiens, UniProt P24941)	1 to 10 nM
Cn1nc(N2CCC(=O)NC2=O)c2ccc(C3CCC(CN4CCC(c5cccc(S(=O)(=O)N6CCC(Nc7ncc(C(F)(F)F)cn7)CC6)c5)CC4)CC3)cc21 (centres unmarked) [Example 238]	CDK2 (Homo sapiens, UniProt P24941)	10 to 100 nM
Cn1nc(N2CCC(=O)NC2=O)c2ccc(C3CCN(CC4CCN(c5cccc(S(=O)(=O)N6CCC(Nc7ncc(OC(F)(F)F)cn7)CC6)c5)CC4)CC3)cc21 [Example 115]	CDK2 (Homo sapiens, UniProt P24941)	10 to 100 nM
Cn1c(=O)n(C2CCC(=O)NC2=O)c2ccc(C3CCN(CC4CCN(c5cccc(S(=O)(=O)N6CCC(Nc7ncc(C(F)(F)F)cn7)CC6)c5)CC4)CC3)cc21 (centres unmarked) [Example 177]	CDK2 (Homo sapiens, UniProt P24941)	1 to 10 nM
Cn1nc(N2CCC(=O)NC2=O)c2ccc(C3CCN(Cc4cccc(S(=O)(=O)N5CCC(Nc6ncc(C(F)(F)F)cn6)CC5)c4)CC3)cc21 [Example 1]	CDK2 (Homo sapiens, UniProt P24941)	1 to 10 nM
CC(Cc1cccc(S(=O)(=O)N2CCC(Nc3ncc(C(F)(F)F)cn3)CC2)c1)CN1CCC(c2ccc3c(N4CCC(=O)NC4=O)nn(C)c3c2)CC1 (centres unmarked) [Example 29]	CDK2 (Homo sapiens, UniProt P24941)	1 to 10 nM

Next compound, please.
Which measured DC50 value corresponds to Cn1c(=O)n(C2CCC(=O)NC2=O)c2cccc(C3CCN(CC4CCN(c5cc(S(=O)(=O)N6CCC(Nc7ncc(Cl)cn7)CC6)ccc5C#N)CC4)CC3)c21 (centres unmarked) [Example 151] ?
10 to 100 nM

The values you see were collected from patent US20260167623A1.
